target: Syk (Homo sapiens (Human))
pIC50: −log10 of the molar value.
Entries and their measured pIC50 follow.
Readout Kind: pIC50

>>> reading("Cc1cc(Nc2nccc(Oc3ccc(NC(=O)Nc4cc(C(C)(C)C)nn4-c4ccc(OCCN5CCOCC5)nc4)c4ccccc34)n2)cc2cn[nH]c12 [Example 91]")
9.00
>>> reading("CC(C)(C)c1cc(NC(=O)Nc2ccc(Oc3ccnc(Nc4ccc5[nH]ncc5c4)n3)c3ccccc23)n(-c2ccc(OCCN3CCOCC3)nc2)n1 [Example 15]")
8.15
>>> reading("COc1ccc(-n2nc(C(C)(C)C)cc2NC(=O)Nc2ccc(Oc3ccnc(Nc4ccc5[nH]ccc5c4)n3)c3ccccc23)cn1 [Example 82]")
7.59
>>> reading("CC(C)(C)c1cc(NC(=O)Nc2ccc(Oc3ccnc(Nc4ccc5c(cnn5CCN5CCOCC5)c4)n3)c3ccccc23)n(-c2ccc(OCCN3CCOCC3)cc2)n1 [Example 74]")
9.00
>>> reading("CC(C)(C)c1cc(NC(=O)Nc2ccc(Oc3ccnc(Nc4ccc5c(c4)OCCO5)n3)c3ccccc23)n(-c2ccc(OCCN3CCOCC3)cc2)n1 [Example 11]")
7.82
>>> reading("CC(C)(C)c1cc(NC(=O)Nc2ccc(Oc3ccnc(Nc4ccc5c(c4)NC(=O)C5(C)C)n3)c3ccccc23)n(-c2ccc(OCCN3CCOCC3)cc2)n1 [Example 62]")
8.05
>>> reading("Cc1n[nH]c2cc(Nc3nccc(Oc4ccc(NC(=O)Nc5cc(C(C)(C)C)nn5-c5ccc(OCCN6CCOCC6)cc5)c5ccccc45)n3)ccc12 [Example 71]")
8.05
>>> reading("Cc1cc(Nc2nccc(Oc3ccc(NC(=O)Nc4cc(C(C)(C)C)nn4-c4ccc(=O)n(CCO)c4)c4ccccc34)n2)cc2cn[nH]c12 [Example 87]")
8.40
>>> reading("COc1ccc(-n2nc(C(C)(C)C)cc2NC(=O)Nc2ccc(Oc3ccnc(Nc4ccc5[nH]nc(C(=O)N6CCOCC6)c5c4)n3)c3ccccc23)cn1 [Example 83]")
7.20
>>> reading("Cc1cc(Nc2nccc(Oc3ccc(NC(=O)Nc4cc(C(C)(C)C)nn4-c4cccc(OCCN5CCOCC5)c4)c4ccccc34)n2)cc2cn[nH]c12 [Example 56]")
8.52
>>> reading("CC(C)c1cc(NC(=O)Nc2ccc(Oc3ccnc(Nc4ccc5[nH]ncc5c4)n3)c3ccccc23)n(-c2ccc(=O)n(CCO)c2)n1 [Example 85]")
7.82
>>> reading("CC(C)(C)c1cc(NC(=O)Nc2ccc(Oc3ccnc(Nc4ccc5c(c4)NC(=O)C5)n3)c3ccccc23)n(-c2cccc(OCCN3CCOCC3)c2)n1 [Example 50]")
8.70
>>> reading("CC(C)(C)c1cc(NC(=O)Nc2ccc(Oc3ccnc(Nc4ccc5[nH]ccc5c4)n3)c3ccccc23)n(-c2cccc(CN3CCCC3=O)c2)n1 [Example 48]")
7.74
>>> reading("Cc1ccc(-n2nc(C(C)(C)C)cc2NC(=O)Nc2ccc(Oc3ccnc(Nc4ccc5[nH]nnc5c4)n3)c3ccccc23)cc1 [Example 36]")
7.12
>>> reading("Cc1ccc(-n2nc(C(C)(C)C)cc2NC(=O)Nc2ccc(Oc3ccnc(Nc4ccc5c(c4)CC(=O)N5C)n3)c3ccccc23)cc1 [Example 20]")
8.22
>>> reading("Cc1ccc(-n2nc(C(C)(C)C)cc2NC(=O)Nc2ccc(Oc3ccnc(Nc4ccc5[nH]ccc5c4)n3)c3ccccc23)cc1 [Example 1]")
7.30
>>> reading("COc1ccc(-n2nc(C(C)(C)C)cc2NC(=O)Nc2ccc(Oc3ccnc(Nc4ccc5[nH]nc(C(=O)N(C)C)c5c4)n3)c3ccccc23)cc1 [Example 47]")
8.30
>>> reading("CC(C)(C)c1cc(NC(=O)Nc2ccc(Oc3ccnc(Nc4ccc5[nH]c(=O)oc5c4)n3)c3ccccc23)n(-c2ccc(OCCN3CCOCC3)cc2)n1 [Example 77]")
7.03
>>> reading("Cc1ccc(-n2nc(C(C)(C)C)cc2NC(=O)Nc2ccc(Oc3ccnc(Nc4ccc5onc(N)c5c4)n3)c3ccccc23)cc1 [Example 5]")
7.31
>>> reading("Cc1ccc(-n2nc(C(C)(C)C)cc2NC(=O)Nc2ccc(Oc3ccnc(Nc4ccc5cn[nH]c5c4)n3)c3ccccc23)cc1 [Example 24]")
5.96
>>> reading("COc1ccc(-n2nc(C(C)(C)C)cc2NC(=O)Nc2ccc(Oc3ccnc(Nc4ccc5[nH]ncc5c4)n3)c3ccccc23)cc1 [Example 40]")
7.62

* * *

# IC50 values compiled below
tested on: Poly I:C-induced ICAM-1 expression in BEAS2B cells; assay: Poly I:C-induced ICAM-1 expression in BEAS2B cells; assay type: cell-based; settings: Homo sapiens, BEAS-2B, read-out: Poly IC induced ICAM1 in BEAS2B IC50
Readout Kind: IC50 (nM)

>>> reading("COc1ccc(-n2nc(C(C)(C)C)cc2NC(=O)Nc2ccc(Oc3ccnc(Nc4ccc5[nH]nc(C(=O)N6CCOCC6)c5c4)n3)c3ccccc23)cn1")
2.9
>>> reading("CC(C)c1cc(NC(=O)Nc2ccc(Oc3ccnc(Nc4ccc5[nH]ncc5c4)c3)c3ccccc23)n(-c2cccc(OCCN3CCOCC3)c2)n1")
23.8
>>> reading("CC(C)(C)c1cc(NC(=O)Nc2ccc(Oc3ccnc(Nc4ccc5c(c4)COC5)n3)c3ccccc23)n(-c2ccc(OCCN3CCOCC3)cc2)n1")
1.4
>>> reading("Cc1cc(Nc2nccc(Oc3ccc(NC(=O)Nc4cc(C(C)(C)C)nn4-c4ccc(OCCN5CCOCC5)nc4)c4ccccc34)n2)cc2cn[nH]c12")
1.9
>>> reading("CC(C)(C)c1cc(NC(=O)Nc2ccc(Oc3ccnc(Nc4ccc5oc(=O)[nH]c5c4)n3)c3ccccc23)n(-c2ccc(OCCN3CCOCC3)cc2)n1")
2.2
>>> reading("COc1ccc(-n2nc(C(C)(C)C)cc2NC(=O)Nc2ccc(Oc3ccnc(Nc4cc(C)c5[nH]ncc5c4)n3)c3ccccc23)cc1")
1.4
>>> reading("CC(C)(C)c1cc(NC(=O)Nc2ccc(Oc3ccnc(Nc4ccc5[nH]ncc5c4)n3)c3ccccc23)n(-c2cccc(OCCN3CCOCC3)c2)n1")
10.3
>>> reading("Cc1ccc(-n2nc(C(C)(C)C)cc2NC(=O)Nc2ccc(Oc3ccnc(Nc4ccc5onc(N)c5c4)n3)c3ccccc23)cc1")
0.6
>>> reading("CC(C)(C)c1cc(NC(=O)Nc2ccc(Oc3ccnc(Nc4ccc5ncsc5c4)n3)c3ccccc23)n(-c2ccc(OCCN3CCOCC3)cc2)n1")
1.9
>>> reading("CC(C)(C)c1cc(NC(=O)Nc2ccc(Oc3ccnc(Nc4ccc5c(c4)NC(=O)C5(C)C)n3)c3ccccc23)n(-c2ccc(OCCN3CCOCC3)cc2)n1")
11.6
>>> reading("Cc1ccc(-n2nc(C(C)(C)C)cc2NC(=O)Nc2ccc(Oc3ccnc(Nc4ccc5[nH]cnc5c4)n3)c3ccccc23)cc1")
4.7
>>> reading("CC(C)c1cc(NC(=O)Nc2ccc(Oc3ccnc(Nc4ccc5[nH]ncc5c4)n3)c3ccccc23)n(-c2ccc(=O)n(CCO)c2)n1")
70.2

* * *

system: LPS-induced airways neutrophilia in mice; test: LPS-induced neutrophil accumulation in mice; assay type: in vivo; conditions: Test Substance at 0.2 mg/mL, intra tracheal, dosed 8 hr pre-LPS challenge
Readout Kind: Neutrophil numbers in BAL (+/−SEM)

>>> reading("COc1ccc(-n2nc(C(C)(C)C)cc2NC(=O)Nc2ccc(Oc3ccnc(Nc4ccc5[nH]ncc5c4)n3)c3ccccc23)cn1 [Example 13]")
"8.5 ± 1.4 ×10^5/mL"
>>> reading("Cc1cc(Nc2nccc(Oc3ccc(NC(=O)Nc4cc(C(C)(C)C)nn4-c4cccc(OCCN5CCOCC5)c4)c4ccccc34)n2)cc2cn[nH]c12 [Example 56]")
"10.2 ± 1.9 ×10^5/mL"
>>> reading("COc1ccc(-n2nc(C(C)(C)C)cc2NC(=O)Nc2ccc(Oc3ccnc(Nc4cc(C)c5[nH]ncc5c4)n3)c3ccccc23)cc1 [Example 42]")
"8.5 ± 1.5 ×10^5/mL"
>>> reading("COCC(=O)Nc1cc(Oc2ccc(NC(=O)Nc3cc(C(C)(C)C)nn3-c3ccc(C)cc3)c3ccccc23)ccn1 [Reference Compound, reference compound]")
"5.6 ± 0.86 ×10^5/mL"
>>> reading("Cc1ccc(-n2nc(C(C)(C)C)cc2NC(=O)Nc2ccc(Oc3ccnc(Nc4ccc5[nH]ncc5c4)n3)c3ccccc23)cc1 [Example 22]")
"7.0 ± 1.2 ×10^5/mL"
>>> reading("CC(C)(C)c1cc(NC(=O)Nc2ccc(Oc3ccnc(Nc4ccc5[nH]ncc5c4)n3)c3ccccc23)n(-c2ccc(OCCN3CCOCC3)cc2)n1 [Example 12]")
"7.6 ± 1.5 ×10^5/mL"

* * *

Reported values of IC50 for individual entries
system: Poly I:C-induced ICAM-1 expression in BEAS2B cells; test: Poly I:C-induced ICAM-1 expression in BEAS2B cells; assay type: cell-based; settings: Homo sapiens, BEAS-2B, read-out: Poly IC induced ICAM1 in BEAS2B IC50
Readout Kind: IC50 (nM)

>>> reading("Cc1ccc(-n2nc(C(C)(C)C)cc2NC(=O)Nc2ccc(Oc3ccnc(Nc4ccc5[nH]nc(C(=O)NCCN6CCOCC6)c5c4)n3)c3ccccc23)cc1")
6.8
>>> reading("CC(C)(C)c1cc(NC(=O)Nc2ccc(Oc3ccnc(Nc4ccc5c(c4)CCC5)n3)c3ccccc23)n(-c2ccc(OCCN3CCOCC3)cc2)n1")
0.1
>>> reading("CC(C)(C)c1cc(NC(=O)Nc2ccc(Oc3ccnc(Nc4ccc5c(c4)NC(=O)C5)n3)c3ccccc23)n(-c2cccc(OCCN3CCOCC3)c2)n1")
2.7
